Data origin, for the record: paper PMC4552634

test system: P. falciparum stage V gametocytes; design: BacTiter-Glo ATP luminescence viability of purified stage V gametocytes in 384-well plates, per cent inhibition versus DMSO; conditions: 48 h, 5 µM; inhibitor
Among all 13,000 compounds or so, about 3,200 (25%) showed an effect of 50% or more. The list shows a part of the results.
Endpoint: % Inhibition (%)
Use % as the unit, but write only the number.

Worked cases, answers included:
{"Compound": "C=CCN1C(=O)CN(S(=O)(=O)c2ccc(-n3nc(C)cc3C)cc2)C1=S [TCMDC-131799]", "Target under test": "P. falciparum stage V gametocytes", "Quantitative result": -1.195}
{"Compound": "CC(=O)N(Cc1cccc(-c2cccc(CNCc3ccc4c(c3)OCO4)c2)c1)C1CCN(Cc2ccccc2)CC1 [TCMDC-140529]", "Target under test": "P. falciparum stage V gametocytes", "Quantitative result": -13.98}

# assay system P. falciparum stage V gametocytes: give % Inhibition of O=C(NCCN1CCCc2ccccc21)C1CCN(c2nc(-c3ccc(Cl)cc3)no2)CC1 [TCMDC-125165]
5.616

----------
system: P. falciparum stage V gametocytes; parameters: BacTiter-Glo ATP luminescence viability of purified stage V gametocytes in 384-well plates, per cent inhibition versus DMSO; settings: 48 h, 5 µM; inhibitor
About 3,200 (25%) of roughly 13,000 compounds showed an effect of 50% or more. This is one part of the list.
% Inhibition listing for selected compounds.
Put your answer as a value accompanied by its unit after it.

{"Compound": "CCC[C@@H]([C@@H](CC(C)C)C(=O)N[C@@H](CCCNc1nccc(C(F)(F)F)n1)C(=O)Nc1nccs1)N(O)C=O", "% Inhibition": "53.7%"}
{"Compound": "CC(CN1CCN(CC(c2ccc(F)cc2)N2CCN(C)CC2)CC1)C(=O)c1ccc(O)cc1 (stereo not drawn)", "% Inhibition": "29.96%"}

Would you kindly look at the next entry?
// fetch % Inhibition given entry CC(C)(C)c1ccc(NC(=O)c2cccc(CN3CCCN(Cc4cccc(O)c4)CC3)c2)cc1
-11.1%

----------
system: P. falciparum stage V gametocytes; set-up: BacTiter-Glo ATP luminescence viability of purified stage V gametocytes in 384-well plates, per cent inhibition versus DMSO; settings: 48 h, 5 µM; inhibitor
The campaign covered roughly 13,000 compounds. About 3,200 (25%) showed an effect of 50% or more. The list shows a part of the results.
Endpoint: % Inhibition (%)
Use % as the unit, but write only the number.

{"Molecule": "Oc1ccc(-c2ccccc2)cc1CN1CCCCCC1", "% Inhibition, %": 12.06}

// fetch % Inhibition given entry CCCn1c(SCC(=O)Nc2cc(Cl)ccc2Cl)n[nH]c1=O
-15.86

// fetch % Inhibition given entry Fc1cccc2sc(Nc3nc(-c4ccccn4)cs3)nc12
81.67

// fetch % Inhibition given entry CN(C)CCCn1c(N)c(-c2nc3ccccc3[nH]2)c2nc(C#N)c(C#N)nc21
113.1

----------
system: P. falciparum stage V gametocytes; set-up: BacTiter-Glo ATP luminescence viability of purified stage V gametocytes in 384-well plates, per cent inhibition versus DMSO; details: 48 h, 5 µM; inhibitor
The campaign covered roughly 13,000 compounds. About 3,200 (25%) showed an effect of 50% or more. The list shows a part of the results.
# % Inhibition >= 60% gives satisfied, anything below gives not satisfied

Please review the entries below; each comes with its answer.
{"Molecule": "CC(C)N1CCN(C(CN2CCN(CCCOc3ccc4ccccc4c3)CC2)c2ccc(F)cc2)CC1 (centres unmarked) [TCMDC-135495]", "Target under test": "P. falciparum stage V gametocytes", "Class": "satisfied"}
{"Molecule": "CCCNCc1ccc(-c2ccc(CNC3Cc4ccccc4C3)cc2)nc1 [TCMDC-141616]", "Target under test": "P. falciparum stage V gametocytes", "Class": "not satisfied"}
{"Molecule": "CCCN(CCC)C(=O)c1cc(C(=O)N[C@@H](Cc2ccccc2)[C@H](O)CNCc2cccc(OC)c2)cc(N2CCCCS2(=O)=O)c1 [TCMDC-138893]", "Target under test": "P. falciparum stage V gametocytes", "Class": "not satisfied"}
{"Molecule": "Cc1cc(N(C)C)nc(Nc2ccc(NC(=O)c3ccccc3C)cc2)n1 [TCMDC-124729]", "Target under test": "P. falciparum stage V gametocytes", "Class": "not satisfied"}

Please check the record CCn1cnc2c(N3CCCCS3(=O)=O)cc(C(=O)N[C@@H](Cc3ccccc3)[C@H](O)CNC3CCOCC3)cc21 [TCMDC-135662] and state if its % Inhibition is at or above 60%.
not satisfied

----------
% Inhibition listing for selected compounds.
system: P. falciparum stage V gametocytes; set-up: BacTiter-Glo ATP luminescence viability of purified stage V gametocytes in 384-well plates, per cent inhibition versus DMSO; conditions: 48 h, 5 µM; inhibitor
The whole screen tested about 13,000 compounds, of which about 3,200 (25%) showed an effect of 50% or more. Some of the results follow.
Use % as the unit, but write only the number.

Worked cases, answers included:
{"Compound": "COc1ccccc1N1CCN(C(C(=O)NCc2ccc3c(c2)OCO3)c2ccc3c(c2)OCCCO3)CC1 (stereo not shown)", "Endpoint": "% Inhibition", "Unit name": "%", "Quantitative result": -10.78}
{"Compound": "CN(C)CCOc1ccc(NC(=O)NC(C)(C)c2nc(-c3ccc(Cl)c(O)c3)c(-c3ccncc3)[nH]2)cc1", "Endpoint": "% Inhibition", "Unit name": "%", "Quantitative result": -34.41}
{"Compound": "O=C(Nc1ccccc1)c1cnc[nH]1", "Endpoint": "% Inhibition", "Unit name": "%", "Quantitative result": -10.44}
{"Compound": "CCN(CC)CCCCNc1cc(-c2[nH]c(-c3c(Cl)cccc3Cl)nc2-c2ccc3cc(OC)ccc3c2)ccn1", "Endpoint": "% Inhibition", "Unit name": "%", "Quantitative result": 85.02}
{"Compound": "Cc1ncc([N+](=O)[O-])n1CCOC(=O)NC(Nc1ccc(Br)cc1)C(Cl)(Cl)Cl (stereo not shown)", "Endpoint": "% Inhibition", "Unit name": "%", "Quantitative result": 76.02}
{"Compound": "COc1cccc(CNCC(C)(C)c2nc(-c3ccc(Cl)c(O)c3)c(-c3ccncc3)[nH]2)c1", "Endpoint": "% Inhibition", "Unit name": "%", "Quantitative result": -54.89}
{"Compound": "Nc1ncc(-c2ccccc2)cc1-c1nc2cc(Cl)c(F)cc2[nH]1", "Endpoint": "% Inhibition", "Unit name": "%", "Quantitative result": -16.12}
{"Compound": "CCc1ccc2nc(-c3ccc(F)cc3)nc(SCC(=O)Nc3sc(C)c(C)c3C#N)c2c1", "Endpoint": "% Inhibition", "Unit name": "%", "Quantitative result": 16.25}
{"Compound": "CCN(CC)S(=O)(=O)c1ccc(C(C)NC(=O)c2ccccc2COc2ccccc2)cc1 (stereo not shown)", "Endpoint": "% Inhibition", "Unit name": "%", "Quantitative result": 39.64}
{"Compound": "Cc1cc(Cl)c(S(=O)(=O)NC2CCCC2)cc1OCC(=O)NC1CCCCC1", "Endpoint": "% Inhibition", "Unit name": "%", "Quantitative result": 26.39}

// fetch % Inhibition given entry COc1ccc(CNC(=O)C2Cc3ccccc3CN2Cc2ccc3ccccc3c2)cc1 (stereo not shown)
-15.29

// fetch % Inhibition given entry CC(C)CC(=O)N1CCNC[C@@H]1C(=O)NC1CC1
28.73

// fetch % Inhibition given entry COc1cc(NCC(O)CNc2cc(Cl)nc3ccccc23)nc2ccccc12 (stereo not shown)
31.96

// fetch % Inhibition given entry N#Cc1c(N)nc(SCC(=O)Nc2cc(C(F)(F)F)ccc2Cl)c(C#N)c1-c1cccs1
-5.622

// fetch % Inhibition given entry Cc1ncc([N+](=O)[O-])n1CCOC(=O)NC(NCC1COc2ccccc2O1)C(Cl)(Cl)Cl (stereo not shown)
93.51

// fetch % Inhibition given entry CC(C)C(=O)NC(NC(=S)Nc1ccc(Br)cc1)C(Cl)(Cl)Cl (stereo not shown)
29.56

// fetch % Inhibition given entry Cc1c2c(nn1-c1ccccc1)C(c1ccccc1)N(c1ccccc1)C2=O (stereo not shown)
-2.033

// fetch % Inhibition given entry O=C(NCC1COc2ccccc2O1)c1cnc2c(c1)nc(-c1cnc(-c3ccccc3)[nH]1)n2CCSCc1c(F)cccc1Cl (stereo not shown)
12.96

// fetch % Inhibition given entry COc1ccccc1N1CCN(C(C(=O)NCc2ccc3c(c2)OCO3)c2ccc(C)cc2)CC1 (stereo not shown)
-4.748

// fetch % Inhibition given entry COc1cc(NCCCCCNc2cc(Cl)nc3ccccc23)nc2ccccc12
-22.5

// fetch % Inhibition given entry COc1cc(C(=O)NCCCN2CCN(c3cccc(Cl)c3)CC2)ccc1-c1nc2cc(Cl)c(F)cc2[nH]1
-11.24

// fetch % Inhibition given entry CCC(C)(CC)C(=O)n1ncc2c3c(N)nc(N)nc3ccc21
-46.13

// fetch % Inhibition given entry COc1ccc2cc(-c3nc(-c4c(Cl)cccc4Cl)[nH]c3-c3ccnc(NCCC4CCCN4C)c3)ccc2c1 (stereo not shown)
70.07

// fetch % Inhibition given entry CC(C)Cc1csc(NC(=O)C=Cc2ccco2)c1C(=O)O
6.698

// fetch % Inhibition given entry COCc1ccc(CN2CCC(C(=O)Nc3ccc(-c4nc5ccccc5[nH]4)cc3)CC2)o1
-40.1
